- Study System: Bacillus subtilis glutamine PRPP amidotransferase, wild type (Bacillus subtilis, UniProt P00497)
- Construct: Enzymes of the B. subtilis class are synthesized with an NH2 terminal propeptide; made in house; host or cells: E. coli strain TX158 (purF), plasmid pGZ1
- Sequence (P00497 12-476): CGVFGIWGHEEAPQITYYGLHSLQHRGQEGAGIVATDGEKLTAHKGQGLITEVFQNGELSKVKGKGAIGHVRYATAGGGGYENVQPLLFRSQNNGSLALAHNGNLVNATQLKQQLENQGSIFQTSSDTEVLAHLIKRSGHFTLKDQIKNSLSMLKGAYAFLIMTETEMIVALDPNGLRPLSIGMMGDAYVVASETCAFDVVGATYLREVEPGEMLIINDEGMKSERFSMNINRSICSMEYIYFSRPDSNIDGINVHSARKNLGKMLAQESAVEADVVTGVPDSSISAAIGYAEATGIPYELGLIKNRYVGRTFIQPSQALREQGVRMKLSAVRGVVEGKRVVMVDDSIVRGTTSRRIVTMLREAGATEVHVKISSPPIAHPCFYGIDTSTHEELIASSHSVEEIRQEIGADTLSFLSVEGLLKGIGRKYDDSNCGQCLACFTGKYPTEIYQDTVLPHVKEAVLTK
- Assay Procedure: Inhibition of enzyme activity (glutamate formation) by nucleotides, wild type
- Assay type: biochemical
- Reported Conditions: fixed ADP 0.5 mM; read-out: I0.5
This section presents compounds with their documented IC50 values.
Reported Endpoint: IC50 (µM)

>>> result("Nc1ncnc2c1ncn2[C@@H]1O[C@H](COP(=O)(O)O)[C@@H](O)[C@H]1O [AMP]")
640
>>> result("Nc1nc2c(ncn2[C@@H]2O[C@H](COP(=O)(O)O)[C@@H](O)[C@H]2O)c(=O)[nH]1 [GMP]")
150

###

- Study System: Bacillus subtilis glutamine PRPP amidotransferase, wild type (Bacillus subtilis)
- Construct: Enzymes of the B. subtilis class are synthesized with an NH2 terminal propeptide; made in house; host or cells: E. coli strain TX158 (purF), plasmid pGZ1
- Assay Procedure: Inhibition of enzyme activity (glutamate formation) by nucleotides, wild type
- Type: biochemical
- Reported Conditions: no fixed nucleotide; 2.5 mM PRPP, pH 8.0, 37° C.; read-out: I0.5
pIC50: −log10 of the molar value.
Reported Endpoint: pIC50

>>> result("Nc1nc2c(ncn2[C@@H]2O[C@H](COP(=O)(O)O)[C@@H](O)[C@H]2O)c(=O)[nH]1 [GMP]")
2.03
>>> result("Nc1ncnc2c1ncn2[C@@H]1O[C@H](COP(=O)(O)O)[C@@H](O)[C@H]1O [AMP]")
3.05
